Test system: EGFR Del19/T790M/C797S (H1975-clone #28)
PROTOCOL_DESCRIPTION: EGFR degradation HTRF assay, H1975-clone #28 DTC cells
Assay type: cell-based
CONDITIONS_USED: H1975 # 28 DTC cells; maximum percentage of inhibition (degradation)
Description: H1975-clone #28(Del19/T790M/C797S) and H1975-clone #23(Del19/C797S). EGFR-Del19/T790M/C797S and EGFR-Del19/C797S were stably expressed in H1975 cell lines by lentivirus-mediated over-expression, respectively. […] The inhibition (degradation) percentage of the compound was calculated by the following equation: Inhibition percentage of Compound=100-100×(Signal-low control)/(High control-low control), wherein signal=each test compound group […]
Rule: Dmax (%) H1975 # 28 DTC of 80% or more gives met; anything lower gives not met.

Some solved entries appear below for comparison.
- COMPOUND: "CCc1cc(Nc2ncc(Br)c(Nc3ccc4nc(C)ccc4c3P(C)(C)=O)n2)c(OC)cc1N1CCC(N2CCN(CCOc3cccc4c3n(C)c(=O)n4C3CCC(=O)NC3=O)CC2)CC1 (stereo not shown) [Example 683]"
  QUALITATIVE_LABEL: "not met"
- COMPOUND: "CCc1cc(Nc2ncc(Br)c(Nc3ccc4nc(C)sc4c3P(C)(C)=O)n2)c(OC)cc1N1CCC(N2CCN(CCc3cc(F)c(C4CCC(=O)NC4=O)c(F)c3)CC2)CC1 (stereo not shown) [Example 666]"
  QUALITATIVE_LABEL: "met"
- COMPOUND: "CCc1cc(Nc2ncc(Br)c(Nc3ccc4nccnc4c3P(C)(C)=O)n2)c(OC)cc1N1CCC(N2CCN(CCc3cc(F)c([C@H]4CCC(=O)NC4=O)c(F)c3)CC2)CC1 [Example 751]"
  QUALITATIVE_LABEL: "met"

-- ask State whether the measured Dmax (%) H1975 # 28 DTC reaches 80%, counting equality as reaching it, for CCc1ccc2c(P(C)(C)=O)c(Nc3nc(Nc4cc(C)c(N5CCC(N6CCN(C(=O)[C@@H]7CCN(c8cc(F)c([C@H]9CCC(=O)NC9=O)c(F)c8)C7)CC6)CC5)cc4OC)ncc3Br)ccc2n1 [Example 539]
-- reply met

-- ask State whether the measured Dmax (%) H1975 # 28 DTC reaches 80%, counting equality as reaching it, for CCOc1cc(N2CCC(N3CCN(CCc4c(F)ccc5c4oc(=O)n5C4CCC(=O)NC4=O)CC3)CC2)c(CC)cc1Nc1ncc(Br)c(Nc2ccc3nc(CC)ccc3c2P(C)(C)=O)n1 (stereo not shown) [Example 471]
-- reply not met

-- ask State whether the measured Dmax (%) H1975 # 28 DTC reaches 80%, counting equality as reaching it, for CCc1cc(Nc2ncc(Br)c(Nc3cc(F)c4nc(C)ccc4c3P(C)(C)=O)n2)c(OC)cc1N1CCC(N2CCN(CCc3ccc4c(c3)oc(=O)n4C3CCC(=O)NC3=O)CC2)CC1 (stereo not shown) [Example 536]
-- reply not met

-- ask State whether the measured Dmax (%) H1975 # 28 DTC reaches 80%, counting equality as reaching it, for CCc1ccc2c(P(C)(C)=O)c(Nc3nc(Nc4cc(CC)c(N5CCC(N6CCN(C(=O)C7CCN(c8cccc9c8oc(=O)n9C8CCC(=O)NC8=O)CC7)CC6)CC5)cc4OC)ncc3Br)ccc2n1 (stereo not shown) [Example 450]
-- reply not met

-- ask State whether the measured Dmax (%) H1975 # 28 DTC reaches 80%, counting equality as reaching it, for CCOc1cc(N2CCC(N3CCN(CCc4c(F)ccc5c4oc(=O)n5C4CCC(=O)NC4=O)CC3)CC2)c(CC)cc1Nc1ncc(Br)c(Nc2cc(F)c3nc(CC)ccc3c2P(C)(C)=O)n1 (stereo not shown) [Example 595]
-- reply not met
